Below is a list of entries, each paired with its recorded TGI value.
# System: SF-539 CNS
# method-description: NCI tumour cell line growth inhibition, 48 h

| molecule | TGI |
| --- | --- |
| Cc1cc2c(=O)c(C)n[nH]c2c(C#N)c1C | > 100 µM |
| CN(C)/C=C/c1c2c(nc3ccccc13)C(=O)c1cccnc1C2=O | 1.21 µM |
| O=C1NC(=S)NC(=O)C1=CC1CC1 | > 100 µM |
| COc1ccc2nc3cc([N+](=O)[O-])ccc3c(Nc3ccc(S(=O)(=O)Nc4ncccn4)cc3)c2c1 | > 100 µM |
| C#CCOC(=O)/C=C/C(=O)Oc1ccc2c(C)cc(=O)oc2c1 | > 100 µM |

[in] Give a short answer stating reported TGI for COc1ccccc1NC(=O)C1=C(C)NC(C)=C(C(=O)Nc2ccccc2OC)C1c1ccccc1Cl .
[out] > 100 µM

[in] Give a short answer stating reported TGI for CCOC(=O)CNC(=O)OCc1ccccc1 .
[out] > 100 µM

[in] Give a short answer stating reported TGI for C=CCCCN1CCCCC1=S .
[out] > 100 µM

[in] Give a short answer stating reported TGI for COc1cc2c(/C=C3/C(=O)Nc4ccc(O)cc43)c(Cl)n(Cc3cc(OC)c(OC)c(OC)c3)c2cc1C .
[out] > 31.1 µM

---

# Tested on: SF-295 CNS
# method-description: NCI tumour cell line growth inhibition, 48 h
quantity-kind: TGI

The examples below pair each entry with its known result.
| molecule | target | quantity-kind | result |
| --- | --- | --- | --- |
| c1ccc(SCCc2ccncc2)cc1 | SF-295 CNS | TGI | > 100 µM |
| CC1(C)CCc2c(c(N=Nc3ccccc3F)c3ccccc3c2O)O1 | SF-295 CNS | TGI | 44 µM |
| Nc1ncnc2c1ncn2[C@@H]1O[C@H](COP(=O)(O)OP(=O)(O)OC[C@H]2O[C@@H](OCCCO)[C@H](O)[C@@H]2O)[C@@H](O)[C@H]1O | SF-295 CNS | TGI | > 100 µM |

[in] Give a short answer stating reported TGI for O=C(CC1(O)C(=O)Nc2ccccc21)c1ccc(Cl)cc1Cl (stereo not given) .
[out] > 100 µM

[in] Give a short answer stating reported TGI for O=C(O)CCSC(=O)Nc1cccc2ccccc12 .
[out] > 100 µM

---

# Tested on: XF 498 CNS
# method-description: NCI tumour cell line growth inhibition, 48 h
Below is a list of entries, each paired with its recorded TGI value.

[in] Output reported TGI of the compound CN(C)CCN(C)C(=O)c1cccc2cccc(C(=O)O)c12 on XF 498 CNS.
[out] > 100 µM

[in] Output reported TGI of the compound Oc1ccc(C2Oc3cc(O)cc4c3C2c2cc(O)cc3c2C(c2cc(O)cc5c2C4C(c2ccc(O)cc2)O5)C(c2ccc(O)cc2)O3)cc1 (stereo unspecified) on XF 498 CNS.
[out] 24.5 µM

[in] Output reported TGI of the compound CC(C)C1=CC2=CC[C@@H]3[C@](C)(CCC[C@@]3(C)C(=O)O)[C@H]2CC1 on XF 498 CNS.
[out] > 100 µM

[in] Output reported TGI of the compound CN1c2c(nc(N)[nH]c2=O)NCC1CCNc1ccc(C(=O)NC(CCC(=O)O)C(=O)O)cc1 (stereo unspecified) on XF 498 CNS.
[out] 2150 µM

[in] Output reported TGI of the compound C#CC(C)(C)OCCCCOc1cc(O)c2c(=O)c3ccccc3n(C)c2c1 on XF 498 CNS.
[out] > 100 µM

[in] Output reported TGI of the compound COc1ccc(-c2cc(=O)c3cc(C)c(C)c(C(=O)O)c3o2)cc1 on XF 498 CNS.
[out] > 100 µM
